System: HCT15 cell line
Assay: MTT assay for in vitro cytotoxicity, HCT15
Assay type: cell-based, human
Settings: MTT assay, 72 h incubation, HCT15 human colon cancer cells; listed as 1; read-out: IC50 values against HCT15
readout_type: IC50 (µM)

1. CC(C)c1cccc(C(C)C)c1-n1cc[n+](-c2c(C(C)C)cccc2C(C)C)[c]1[Au][S]C(=N)N.F[P-](F)(F)(F)(F)F [Complex 1, [Au(Ipr)(κSCN2H4)]PF6]
6.61

---

System: MG-63 cell line
Test: MTT assay for in vitro cytotoxicity, MG-63
Type: cell-based
Conditions: 72 h incubation, MG-63 human osteosarcoma cells, read-out: IC50 values against MG-63
readout_type: IC50 (µM)

1. CC(C)c1cccc(C(C)C)c1-n1ccn(-c2c(C(C)C)cccc2C(C)C)[c]1=[Au][Cl] [Complex 0, reference compound]
61.6
2. N.N.[Cl][Pt][Cl] [Cisplatin, reference compound]
33.4
3. CN=C(NC)[S][Au][c]1n(-c2c(C(C)C)cccc2C(C)C)cc[n+]1-c1c(C(C)C)cccc1C(C)C.F[P-](F)(F)(F)(F)F [Complex 2, [Au(Ipr)(κSCN2C2H8]PF6]
14.7
4. CC(C)c1cccc(C(C)C)c1-n1cc[n+](-c2c(C(C)C)cccc2C(C)C)[c]1[Au][S]C(=N)N.F[P-](F)(F)(F)(F)F [Complex 1, [Au(Ipr)(κSCN2H4)]PF6]
1.76
